Listing of entries alongside the reported TGI.
Test system: SW-620 colon
Assay: NCI tumour cell line growth inhibition, 48 h
Where a SMILES comes first, the peptide text is derived from it. The star is where a group is joined. Cbz = O=C(OCc1ccccc1)*

>  <compound>
CC(=O)Oc1c2c(c(O)c3ccccc13)C(n1cnc3c(ncn3C3OC(CO)C4OC(C)(C)OC43)c1=N)CCC2 (configuration not stated)

>  <TGI>
29.6 µM

$$$$
>  <compound>
Fc1cc(-c2cc(-c3ccccc3)no2)c(Cl)cc1Cl

>  <TGI>
> 63.3 µM

$$$$
>  <compound>
O=c1ccn([C@H]2CSC[C@@H](CO)C2)c(=O)[nH]1

>  <TGI>
> 100 µM

$$$$
>  <compound>
O=C(Nc1nc(=S)c2c(ncn2CCOC(=O)c2ccccc2)[nH]1)c1ccccc1

>  <TGI>
> 100 µM

$$$$
>  <compound>
CN=C(N=Nc1c(O)[nH]c2ccccc12)SCC(=O)c1ccc(Br)cc1

>  <TGI>
> 34.1 µM

$$$$
>  <compound>
O=C(O)CCC(NC(=O)c1ccc(Nc2nc3cc(C(F)(F)F)ccc3nc2-c2ccccc2)cc1)C(=O)O (configuration not stated)

>  <TGI>
> 100 µM

$$$$
>  <compound>
O=C(O)CCC(NC(=O)OCc1ccccc1)C(=O)NC(Cc1cnc[nH]1)C(=O)O (stereo not drawn) (Cbz-Glu-His-OH; configuration not given here)

>  <TGI>
> 100 µM

$$$$
>  <compound>
CCC[CH2][Sn]([Cl])([CH2]CCC)[CH2]CCC

>  <TGI>
0.273 µM

$$$$
>  <compound>
Cn1c(=O)n(C2(C)C[Se]C2)c2ccccc21

>  <TGI>
> 100 µM

$$$$
>  <compound>
COc1ccc(P2(=S)OC(C)(C)C(C)(C)O2)cc1

>  <TGI>
> 100 µM

$$$$
>  <compound>
COc1ccc(/C=C2\N=C(SC)N(CN3CCOCC3)C2=O)cc1

>  <TGI>
> 100 µM

$$$$
>  <compound>
CN(C)CC[PH+](c1ccccc1)c1ccccc1.CN(C)CC[PH+](c1ccccc1)c1ccccc1.[Cl-].[Pd+2]

>  <TGI>
> 100 µM

$$$$
>  <compound>
O=C1/C(=C/c2cccc(Cl)c2Cl)N=C(c2ccccc2)N1C1CC1

>  <TGI>
> 50 µM

$$$$
>  <compound>
O=C1/C(=C/c2ccccc2S)N=C(c2ccccc2)N1c1nc2c(Cl)cc(Cl)cc2s1

>  <TGI>
> 100 µM

$$$$
>  <compound>
O=C(O)C(NCc1ccccc1)C(NCc1ccccc1)C(=O)O (configuration not stated)

>  <TGI>
> 100 µM

$$$$
>  <compound>
CCCNC(=S)NNC(=O)CSc1nc(-c2ccccc2)c(-c2ccccc2)[nH]1

>  <TGI>
> 100 µM

$$$$
>  <compound>
CC12CP(=O)(c3ccccc3)CC1C2(Cl)Cl (configuration not stated)

>  <TGI>
> 100 µM

$$$$
>  <compound>
Cc1cc2oc(=N)c(C#N)c(C)c2cc1C

>  <TGI>
> 100 µM

$$$$
>  <compound>
Oc1[nH]c2ccccc2c1N=NC(=S)Nc1cccc(Cl)c1

>  <TGI>
26.8 µM

$$$$
>  <compound>
Cn1c(=O)c(-c2ccccc2)c(N=[N+]=[N-])c2ccccc21

>  <TGI>
> 100 µM

$$$$
>  <compound>
[Cl][Hg][c]1cc[c]([Hg][Cl])o1

>  <TGI>
3.23 µM

$$$$
>  <compound>
c1ccc(CCNc2ccccn2)nc1

>  <TGI>
> 100 µM

$$$$

====

System: MDA-MB-231 breast
Experiment: NCI tumour cell line growth inhibition, 48 h
Below, each entry is listed with its recorded TGI.

>  <molecule>
Cc1ncc(C(=O)Nc2ccc(CN3CCN(C)CC3)c(C(F)(F)F)c2)cc1C#Cc1cnc(N)c2ccncc12

>  <qualifying sign>
=

>  <TGI / µM>
2.02

$$$$
>  <molecule>
Cc1ccc(NC(=O)CC2CC2)cc1-c1ccc(C(=O)NCC2CC2)cc1

>  <qualifying sign>
>

>  <TGI / µM>
25

$$$$
>  <molecule>
COc1ccc(C(OCC2OC(n3cc(C)c(=O)[nH]c3=O)CC2n2cc(Cn3cc(Cl)c(=O)[nH]c3=O)nn2)(c2ccccc2)c2ccccc2)cc1 (stereo not given)

>  <qualifying sign>
>

>  <TGI / µM>
100

$$$$
>  <molecule>
N#Cc1c(N)nc2n[nH]c(N)c2c1-c1ccc(Cl)cc1

>  <qualifying sign>
=

>  <TGI / µM>
10.4

$$$$
>  <molecule>
Nc1nc(N)c2c3c(cnc2n1)CC(c1ccccc1)CC3 (stereo not given)

>  <qualifying sign>
=

>  <TGI / µM>
96.8

$$$$

====

Tested on: NCI/ADR-RES ovarian
Assay: NCI tumour cell line growth inhibition, 48 h
The following compounds are listed with their measured TGI values.

>  <compound>
N#Cc1c(N)n(-c2cccc(C(=O)O)c2)c(=O)c2cc([N+](=O)[O-])ccc12

>  <TGI>
> 100 µM

$$$$
>  <compound>
O=C1CCCC1CN1CCCC1 (stereo not given)

>  <TGI>
37.9 µM

$$$$
>  <compound>
COc1cc(-n2cc(-c3ccc(F)cc3)[nH]c2=O)cc(OC)c1OC

>  <TGI>
> 100 µM

$$$$
>  <compound>
COc1ccc(Nc2nnc(-c3cc(O)ccc3O)s2)cc1

>  <TGI>
> 50 µM

$$$$
>  <compound>
Cn1c(=O)c(-c2ccccc2)c(N=[N+]=[N-])c2ccccc21

>  <TGI>
> 100 µM

$$$$
>  <compound>
CCOC(=O)Nc1ccc(-c2nc(-c3cccc(OCCN4CCOCC4)c3)c(-c3ccnc(Br)c3)[nH]2)cc1

>  <TGI>
> 100 µM

$$$$
>  <compound>
O=C(CC1(O)C(=O)N(Cc2ccccc2)c2ccc(F)cc21)c1ccc(C(=O)NCC2CCC3(CC2)OOC2(CCCCC2)OO3)cc1 (stereo not given)

>  <TGI>
1.14 µM

$$$$
>  <compound>
CC(=O)c1[nH]c(NCc2ccccc2)c(C(=S)Nc2ccccc2)c1N

>  <TGI>
> 100 µM

$$$$
>  <compound>
CCOC(=O)CN1C(=O)c2ccc(NC(=O)C(=O)O)cc2S1(=O)=O

>  <TGI>
> 100 µM

$$$$
>  <compound>
COC(CNC(=O)C(C)NC(=O)/C=C/c1ccccc1)OC (stereo not given)

>  <TGI>
> 100 µM

$$$$

====

System: MCF7 breast
Experiment: NCI tumour cell line growth inhibition, 48 h; in the data active = GI50 below about 0.43 µM; inactive = the rest
Classes used: yes (1) (active), no (0) (inactive)

>  <compound>
C[C@@H]1CC[C@@H]2[C@@H]1[C@H](OC(=O)/C=C/c1ccccc1)[C@]1(C3CCCCC3)C[C@@H](OC(=O)CO)[C@@]2(C)O1

>  <discrete label>
no (0)

$$$$
>  <compound>
COc1cc2c(cc1OCCCNC(=O)c1cccc3c(=O)c4ccccc4[nH]c13)N=C[C@@H]1CCCN1C2=O

>  <discrete label>
yes (1)

$$$$
>  <compound>
COc1ccc(-c2nc3ccc(-c4nc5ccc(N6CCN(c7ccccc7)CC6)cc5[nH]4)cc3[nH]2)cc1OC

>  <discrete label>
yes (1)

$$$$
>  <compound>
COc1cc2c3c(n(C)c(=O)c2cc1OC)-c1cc2c(cc1/C3=C\CN)OCO2

>  <discrete label>
yes (1)

$$$$
>  <compound>
O=C1C=CC(=O)c2cc3cc(CBr)ccc3cc21

>  <discrete label>
no (0)

$$$$
>  <compound>
Nc1c(C(=O)Nc2ccncc2)sc2nc3c(cc12)CCCCCCCC3

>  <discrete label>
no (0)

$$$$
>  <compound>
O=C(CC1(O)C(=O)N(Cc2ccccc2)c2ccc(F)cc21)c1ccc(C(=O)NCC2CCC3(CC2)OOC2(CCCCC2)OO3)cc1 (stereo not drawn)

>  <discrete label>
no (0)

$$$$
>  <compound>
COc1ccc(/C=C2/N=C(c3ccccc3)N(c3c(C)n(C)n(-c4ccccc4)c3=O)C2=O)cc1OC

>  <discrete label>
no (0)

$$$$

====

Tested on: EKVX NSCLC
Test: NCI tumour cell line growth inhibition, 48 h

>  <molecule>
C#C[C@]1(O)CCC2C3CCc4cc(O)ccc4C3CC[C@@]21C (stereo partly specified)

>  <TGI>
> 100 µM

$$$$
>  <molecule>
CN(C)C1(N(C)C)Oc2c(c(=O)n(C)c(=O)n2C)C(c2ccccc2)C1(F)F (stereo unspecified)

>  <TGI>
> 100 µM

$$$$
>  <molecule>
CC1(CCOCc2ccccc2)NC(=O)NC1=O (stereo unspecified)

>  <TGI>
> 100 µM

$$$$
>  <molecule>
O=C(CC1(O)C(=O)N(Cc2ccccc2)c2ccc(F)cc21)c1ccc(C(=O)NCC2CCC3(CC2)OOC2(CCCCC2)OO3)cc1 (stereo unspecified)

>  <TGI>
1.25 µM

$$$$
>  <molecule>
CC12CP(=O)(c3ccccc3)CC1C2(Cl)Cl (stereo unspecified)

>  <TGI>
> 100 µM

$$$$
>  <molecule>
CC(C)Oc1ccc2cc(-c3nn(CC4CCNCC4)c4ncnc(N)c34)ccc2c1

>  <TGI>
26.9 µM

$$$$

The reported measurements were obtained from PubChem BioAssay (NCI).
